Source: paper PMC4076210

system: hematological tumor cell lines; assay: 3-day proliferation assay (CellTiter-Glo); assay type: cell-based, human; conditions: Homo sapiens, CEM/C2, CEM/C2 cell line; ALL; T Cell
measured endpoint: IC50
A complete answer gives the number followed by the unit.

Lookup: // fetch IC50 for `Cn1ncc(Cl)c1-c1cc(C(=O)N[C@H](CN)Cc2ccc(F)c(F)c2)oc1Cl` ; system: hematological tumor cell lines
Found: 22 nM

Lookup: // fetch IC50 for `Cn1ncc(Cl)c1-c1cc(C(=O)N[C@H](CN)Cc2cccc(F)c2)sc1Cl` ; system: hematological tumor cell lines
Found: 48 nM

----------
system: hematological tumor cell lines; assay: 3-day proliferation assay (CellTiter-Glo); type: cell-based, human; settings: Homo sapiens, BC1, BC1 cell line; Burkitt's Lymphoma; B Cell
measured endpoint: IC50 (nM)
Numeric only. Scale: nM

Lookup: // fetch IC50 for `Cn1ncc(Cl)c1-c1cc(C(=O)N[C@H](CN)Cc2cccc(F)c2)sc1Cl` ; system: hematological tumor cell lines
Found: 2100

Lookup: // fetch IC50 for `Cn1ncc(Cl)c1-c1cc(C(=O)N[C@H](CN)Cc2ccc(F)c(F)c2)oc1Cl` ; system: hematological tumor cell lines
Found: 465
